This collection of values is drawn from patent US7659240B2.

- System: mucin immobilized to PC IAM particles
- assay_protocol: pH and mucin layer thickness dependence of partition ratio on MIC columns (1:2 and 2:1)
- assay_conditions: column 1:2, 0.32 μm; pH 7; Table 9
value_kind: k′MIC (1:2)

input: GET /values?readout=k′MIC (1:2)&system=mucin immobilized to PC IAM particles&item= COCCc1ccc(OCC(O)CNC(C)C)cc1 (stereo not drawn) [Metoprolol]
output: 47.3

input: GET /values?readout=k′MIC (1:2)&system=mucin immobilized to PC IAM particles&item= CN(CC(=O)O)C(=N)N [Creatine]
output: 25.7

input: GET /values?readout=k′MIC (1:2)&system=mucin immobilized to PC IAM particles&item= CC(C)NCC(O)COc1ccc(CC(N)=O)cc1 (stereo not drawn) [Atenolol]
output: 39

---

- Test system: mucin immobilized to PC IAM particles
- assay_protocol: pH and mucin layer thickness dependence of partition ratio on MIC columns (1:2 and 2:1)
- assay_conditions: column 2:1 mucin to PC IAM, 0.36 μm mucin layer; mobile phase pH 3
Structures can show the parent of a compound that is named as a salt.
value_kind: (2:1) k′ (pH 3)
The response must contain the number and no unit.

Some solved entries appear below for comparison.
[
  {
    "compound": "Nc1nc2c(ncn2COCCO)c(=O)[nH]1",
    "number": 20.43
  },
  {
    "compound": "CC(CCc1ccccc1)NCC(O)c1ccc(O)c(C(N)=O)c1 (stereo not shown)",
    "number": 79.00
  },
  {
    "compound": "CCOC(=O)[C@H](CCc1ccccc1)N[C@@H](C)C(=O)N1CCC[C@H]1C(=O)O [enalapril maleate]",
    "number": 31.86
  },
  {
    "compound": "CC(C(=O)O)c1cccc(C(=O)c2ccccc2)c1 (stereo not shown)",
    "number": 20.43
  },
  {
    "compound": "CC(=O)Nc1ccc(O)cc1",
    "number": 50.43
  }
]

input: GET /values?readout=(2:1) k′ (pH 3)&system=mucin immobilized to PC IAM particles&item= CC(=O)CC(c1ccccc1)c1c(O)c2ccccc2oc1=O (stereo not shown)
output: 21.86

input: GET /values?readout=(2:1) k′ (pH 3)&system=mucin immobilized to PC IAM particles&item= O=C(CCCN1CCC(O)(c2ccc(Cl)cc2)CC1)c1ccc(F)cc1
output: 23.29

input: GET /values?readout=(2:1) k′ (pH 3)&system=mucin immobilized to PC IAM particles&item= COCCc1ccc(OCC(O)CNC(C)C)cc1 (stereo not shown)
output: 36.14

input: GET /values?readout=(2:1) k′ (pH 3)&system=mucin immobilized to PC IAM particles&item= CC(C)NCC(O)COc1cccc2ccccc12 (stereo not shown)
output: 49.00

---

- System: mucin immobilized to PC IAM particles
- assay_protocol: pH and mucin layer thickness dependence of partition ratio on MIC columns (1:2 and 2:1)
- assay_conditions: column 2:1 mucin to PC IAM, 0.36 μm mucin layer; mobile phase pH 7
Structures can show the parent of a compound that is named as a salt.
Below is a list of entries, each paired with its recorded (2:1) k′ (pH 7) value.
The response must contain the number and no unit.

[
  {
    "compound": "NS(=O)(=O)c1cc(C(=O)O)c(NCc2ccco2)cc1Cl [Furosemide]",
    "number": 25.67
  },
  {
    "compound": "CN/C(=N/CCSCc1nc[nH]c1C)NC#N",
    "number": 35.67
  },
  {
    "compound": "CCOC(=O)[C@H](CCc1ccccc1)N[C@@H](C)C(=O)N1CCC[C@H]1C(=O)O [enalapril maleate]",
    "number": 20.67
  }
]

// moving on: another record for (2:1) k′ (pH 7)
input: Give its (2:1) k′ (pH 7) value. Item: CC(=O)CC(c1ccccc1)c1c(O)c2ccccc2oc1=O (stereo not shown)
output: 19.00

---

- System: mucin immobilized to IAM.PC.DD2
- assay_protocol: HPLC on MIC column (2:1 mucin to PC IAM particles): retention time, k′MIC, derived Km and Peff MIC
- assay_conditions: MIC column 2:1 mucin:IAM; MPS pH 7.4
value_kind: k′MIC
The response must contain the number and no unit.

[
  {
    "compound": "C=CCc1ccccc1OCC(O)CNC(C)C (stereo not drawn)",
    "number": 46.1429
  },
  {
    "compound": "CC(C)NCC(O)COc1cccc2ccccc12 (stereo not drawn)",
    "number": 70.4286
  }
]

// moving on: another record for k′MIC
input: Give its k′MIC value. Item: C[C@](N)(Cc1ccc(O)c(O)c1)C(=O)O
output: 33.2857

---

- System: mucin immobilized to PC IAM particles
- assay_protocol: pH and mucin layer thickness dependence of partition ratio on MIC columns (1:2 and 2:1)
- assay_conditions: column 1:2, 0.32 μm; pH 7; Table 9
Where a name gives a salt, the structure may show the parent alone.
One threshold, 40, splits the recorded k′MIC (1:2) values: lower ones are T, equal or higher ones are F.

A selection of reference data follows.
[
  {
    "molecule": "Cc1cc(=O)n(-c2ccccc2)n1C [Antipyrine]",
    "discrete_label": "F"
  },
  {
    "molecule": "CCOC(=O)[C@H](CCc1ccccc1)N[C@@H](C)C(=O)N1CCC[C@H]1C(=O)O [enalapril maleate]",
    "discrete_label": "T"
  }
]

input: Does this molecule meet the criterion k′MIC (1:2) < 40? NS(=O)(=O)c1cc(C(=O)O)c(NCc2ccco2)cc1Cl [Furosemide]
output: T

input: Does this molecule meet the criterion k′MIC (1:2) < 40? CC(C(=O)O)c1cccc(C(=O)c2ccccc2)c1 (centres unmarked)
output: F

---

- Test system: mucin immobilized to IAM.PC.DD2
- assay_protocol: HPLC on MIC column (2:1 mucin to PC IAM particles): retention time, k′MIC, derived Km and Peff MIC
- assay_conditions: determined by linear equation; Table 5
Where a name gives a salt, the structure may show the parent alone.
value_kind: Peff MIC (×10^−4 cm/s)

input: Give its Peff MIC (×10^−4 cm/s) value. Item: CN(CC(=O)O)C(=N)N [Creatine]
output: −0.22 ×10^−4 cm/s

input: Give its Peff MIC (×10^−4 cm/s) value. Item: COCCc1ccc(OCC(O)CNC(C)C)cc1 (stereo not drawn) [Metoprolol]
output: 1.21 ×10^−4 cm/s

input: Give its Peff MIC (×10^−4 cm/s) value. Item: CC(C)(C)NCC(O)c1cc(O)cc(O)c1 (stereo not drawn) [Terbutaline]
output: 1.21 ×10^−4 cm/s

input: Give its Peff MIC (×10^−4 cm/s) value. Item: CCOC(=O)[C@H](CCc1ccccc1)N[C@@H](C)C(=O)N1CCC[C@H]1C(=O)O [enalapril maleate]
output: 0.38 ×10^−4 cm/s

input: Give its Peff MIC (×10^−4 cm/s) value. Item: NC(=O)N1c2ccccc2C=Cc2ccccc21 [carbamazepine]
output: 2.96 ×10^−4 cm/s

input: Give its Peff MIC (×10^−4 cm/s) value. Item: CC(C)NCC(O)COc1cccc2ccccc12 (stereo not drawn) [Propranolol]
output: 4.24 ×10^−4 cm/s

---

- Test system: mucin immobilized to IAM.PC.DD2
- assay_protocol: HPLC on MIC column (2:1 mucin to PC IAM particles): retention time, k′MIC, derived Km and Peff MIC
- assay_conditions: membrane diffusion coefficient calculated from molecular weight
Counter-ions that a name gives are not always drawn.
value_kind: Dm
The response must contain the number and no unit.

[
  {
    "molecule": "CCOC(=O)[C@H](CCc1ccccc1)N[C@@H](C)C(=O)N1CCC[C@H]1C(=O)O [enalapril maleate]",
    "system": "mucin immobilized to IAM.PC.DD2",
    "Dm": 0.0020
  },
  {
    "molecule": "COc1ccc(CCN(C)CCCC(C#N)(c2ccc(OC)c(OC)c2)C(C)C)cc1OC (stereo not shown) [Verapamil]",
    "system": "mucin immobilized to IAM.PC.DD2",
    "Dm": 0.0020
  },
  {
    "molecule": "Cc1cc(=O)n(-c2ccccc2)n1C [Antipyrine]",
    "system": "mucin immobilized to IAM.PC.DD2",
    "Dm": 0.0053
  },
  {
    "molecule": "C=CCc1ccccc1OCC(O)CNC(C)C (stereo not shown) [Alprenolol]",
    "system": "mucin immobilized to IAM.PC.DD2",
    "Dm": 0.0035
  },
  {
    "molecule": "O=C(O)c1cc(/N=N/c2ccc(S(=O)(=O)Nc3ccccn3)cc2)ccc1O [sulfasalazine]",
    "system": "mucin immobilized to IAM.PC.DD2",
    "Dm": 0.0025
  },
  {
    "molecule": "C[C@](N)(Cc1ccc(O)c(O)c1)C(=O)O [α-methyldopa]",
    "system": "mucin immobilized to IAM.PC.DD2",
    "Dm": 0.0047
  },
  {
    "molecule": "OC[C@@H](O)[C@@H](O)[C@H](O)[C@H](O)CO [Mannitol]",
    "system": "mucin immobilized to IAM.PC.DD2",
    "Dm": 0.0055
  },
  {
    "molecule": "CC(=O)Nc1ccc(O)cc1 [acetaminophen]",
    "system": "mucin immobilized to IAM.PC.DD2",
    "Dm": 0.0066
  }
]

input: Give its Dm value. Item: CC(C)NCC(O)COc1cccc2ccccc12 (stereo not shown) [Propranolol]
output: 0.0034

input: Give its Dm value. Item: CC(C)Cc1ccc(C(C)C(=O)O)cc1 (stereo not shown) [Ibuprofen]
output: 0.0044

input: Give its Dm value. Item: CC(=O)Oc1ccccc1C(=O)O [acetyl salicylic acid]
output: 0.0055

input: Give its Dm value. Item: Cn1c(=O)c2c(ncn2C)n(C)c1=O [Caffeine]
output: 0.0051

input: Give its Dm value. Item: COCCc1ccc(OCC(O)CNC(C)C)cc1 (stereo not shown) [Metoprolol]
output: 0.0015
